# TARGET OF ASSAY: T1, Rnd1 GTPase (residues 5-200), loaded with GMPPNP (UniProt Q92730 5-200)
# T1 sequence (looked up): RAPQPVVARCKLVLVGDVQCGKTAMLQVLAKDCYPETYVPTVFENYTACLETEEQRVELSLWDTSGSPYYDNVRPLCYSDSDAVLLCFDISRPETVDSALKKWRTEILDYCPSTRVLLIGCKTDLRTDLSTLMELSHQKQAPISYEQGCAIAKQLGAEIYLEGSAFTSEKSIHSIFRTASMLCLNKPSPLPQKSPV
# METHOD SUMMARY: ITC
READOUT NAME: Ka (M⁻¹)

P = plexin-C1 RBD K1267L (domain or fragment) TVALNVVFEKIPENESADVCRNISVNVLDCDTIGQAKEKIFQAFLSKNGSPYGLQLNEIGLELQMGTRQLELLDIDSSSVILEDGITKLNTIGHYEISNGSTIKVFKK
Q = plexin-D1 RBD S1614V/T1615A (domain or fragment) AKPRNLNVSFQGCGMDSLSVRAMDTDTLTQVKEKILEAFCKNVPYSQWPRAEDVDLEWFASVAQSYILRDLDDTSVVEDGRKKLNTLAHYKIPEGASLAMSLIDKKDNTLGRVKDLDTEKYFHLVL
R = plexin-C1 RBD T1264V/R1265V (domain or fragment) TVALNVVFEKIPENESADVCRNISVNVLDCDTIGQAKEKIFQAFLSKNGSPYGLQLNEIGLELQMGVVQKELLDIDSSSVILEDGITKLNTIGHYEISNGSTIKVFKK
Sort by Ka with smallest numbers at the start of the list. List each label, following the requested order.
Q, P, R
